// provenance: patent US20100240924A1

# herbicidal effect in percent, Setaria listing for each entry below
Test system: Setaria
Test Name: Herbicidal post-emergence action (Example A, greenhouse)
Type: in vivo
Condition Details: 320 g of a.i./ha, rated visually after about 3 weeks
The figure you give is taken to be in %; do not add the unit.

Compound	Metric	Measurement
CCc1cc(C)cc(C)c1C1=C(OC(=O)C(C)(C)C)C(C)(C(C)C)NC1=O (stereo not shown) [I-b-3]	herbicidal effect in percent, Setaria	80
CCOC(=O)OC1=C(c2c(C)cc(C)cc2CC)C(=O)N(CC)C1C (stereo not shown) [Example I-c-1]	herbicidal effect in percent, Setaria	100
CCc1cc(C)cc(C)c1C1=C(O)C(C)N(CC)C1=O (stereo not shown) [Example I-a-1]	herbicidal effect in percent, Setaria	90

Moving on to another compound below.
Bench note: what herbicidal effect in percent, Setaria did CCOC(=O)OC1=C(c2c(C)cc(C)cc2CC)C(=O)NC1(C)C(C)C (stereo not shown) [Example I-c-3] show?
90

---

# herbicidal effect in percent, Lolium listing for each entry below
Test system: Lolium
Test Name: Herbicidal post-emergence action (Example A, greenhouse)
Format: in vivo
Condition Details: 320 g of a.i./ha, rated visually after about 3 weeks
Procedure: Seeds of monocotyledonous and dicotyledonous weed and crop plants are placed into sandy loam in wood fibre pots, covered with soil and cultivated in a greenhouse under good growth conditions. 2-3 weeks after sowing, the test plants are treated at the one-leaf stage. The test compounds, formulated as wettable powders (WP), are, in various dosages with a water application rate of. 600 l/ha (converted), with 0.2% of wetting agent added, sprayed onto the green parts of the plants. […]

Compound	herbicidal effect in percent, Lolium
CCc1cc(C)cc(C)c1C1=C(O)C(C)N(CC)C1=O (stereo not shown) [Example I-a-1]	100%
CCc1cc(C)cc(C)c1C1=C(OC(=O)C(C)(C)C)C(C)(C(C)C)NC1=O (stereo not shown) [I-b-3]	70%

Bench note: what herbicidal effect in percent, Lolium did CCOC(=O)OC1=C(c2c(C)cc(C)cc2CC)C(=O)NC1(C)C(C)C (stereo not shown) [Example I-c-3] show?
100%

Bench note: what herbicidal effect in percent, Lolium did CCOC(=O)OC1=C(c2c(C)cc(C)cc2CC)C(=O)N(CC)C1C (stereo not shown) [Example I-c-1] show?
100%
